For each entry below, report its combination Emax value.
Test system: SW982 (Other Solid Carcinomas)
Assay Info: combination Emax (second highest fraction inhibited in the dose matrix, 72 h); higher = more inhibition; extreme values may be limits of the assay

Please give the documented combination Emax of CC1(C)CCC(CN2CCN(c3ccc(C(=O)NS(=O)(=O)c4ccc(NCC5CCOCC5)c([N+](=O)[O-])c4)c(Oc4cnc5[nH]ccc5c4)c3)CC2)=C(c2ccc(Cl)cc2)C1 [Venetoclax] + CN(C)CCCOc1ccc(-c2ccc3ncc4c(c3c2)n(C2CCOCC2)c(=O)n4C)cn1 [AZD0156] (first compound max 1 µM, 7x7, partner max 1 µM)
0.2

Please give the documented combination Emax of COc1cccc(OCCCN)c1-c1cc(Nc2cnc(C#N)cn2)n[nH]1 [Prexasertib] + C[C@@H]1COCCN1C2=NC(=NC(=C2)C3(CC3)[S@](=N)(=O)C)C4=C5C=CNC5=NC=C4 [AZD6738] (first compound max 1 µM, 7x7, partner max 10 µM)
0.723

Please give the documented combination Emax of N#Cc1cnc(Nc2cc(NC[C@H]3CNCCO3)c(C(F)(F)F)cn2)cn1 [SRA737] + CCc1c2c(nc3ccc(O)cc13)-c1cc3c(c(=O)n1C2)COC(=O)[C@]3(O)CC [SN-38] (first compound max 10 µM, 7x7, partner max 0.3 µM)
0.829

Please give the documented combination Emax of COc1nnc2ccc(N3CCC(c4ccc(OCCN5CCN(C)C(=O)[C@H]5C)cc4)CC3)nn12 [AZD5153] + Cc1c2c(nn1C)CSCc1cc(n(C)n1)CSc1cc(c3ccccc3c1)OCCCc1c(C(=O)O)n(C)c3c-2c(Cl)ccc13 [AZD5991] (first compound max 1 µM, 7x7, partner max 1 µM)
0.771

Please give the documented combination Emax of C[C@@H](c1ccc2nccn2c1)n1nnc2ncc(-c3cnn(C)c3)nc21 [Savolitinib] + CC1(C)CCC(CN2CCN(c3ccc(C(=O)NS(=O)(=O)c4ccc(NCC5CCOCC5)c([N+](=O)[O-])c4)c(Oc4cnc5[nH]ccc5c4)c3)CC2)=C(c2ccc(Cl)cc2)C1 [Venetoclax] (first compound max 1 µM, 7x7, partner max 1 µM)
0.128

Please give the documented combination Emax of CCc1c2c(nc3ccc(O)cc13)-c1cc3c(c(=O)n1C2)COC(=O)[C@]3(O)CC [SN-38] + CN(C)CCCOc1ccc(-c2ccc3ncc4c(c3c2)n(C2CCOCC2)c(=O)n4C)cn1 [AZD0156] (first compound max 0.3 µM, 7x7, partner max 1 µM)
0.803

Please give the documented combination Emax of CN(CCO)CC[C@H](CSc1ccccc1)Nc1ccc(S(=O)(=O)NC(=O)c2ccc(N3CCC([C@@H](O)c4ccccc4-c4ccc(Cl)cc4)CC3)cc2)cc1S(=O)(=O)C(F)(F)F [AZD4320] + C=CCn1c(=O)c2cnc(Nc3ccc(N4CCN(C)CC4)cc3)nc2n1-c1cccc(C(C)(C)O)n1 [AZD1775] (first compound max 1 µM, partner max 1 µM)
0.953

* * *

For each entry below, report its combination Emax value.
System: NCI-H1993 (Lung Adenocarcinoma)
Assay Info: combination Emax (second highest fraction inhibited in the dose matrix, 72 h); higher = more inhibition; extreme values may be limits of the assay

For NCI-H1993 (Lung Adenocarcinoma), give combination Emax of the listed compound: NC1(C(=O)N[C@@H](CCO)c2ccc(Cl)cc2)CCN(c2ncnc3[nH]ccc23)CC1 [Capivasertib] + CC(C)n1c(=O)n(C)c2cnc3cc(F)c(-c4ccc(OCCCN5CCCCC5)nc4)cc3c21 [AZD1390] (first compound max 10 µM, 7x7, partner max 0.3 µM)
0.595

For NCI-H1993 (Lung Adenocarcinoma), give combination Emax of the listed compound: CC1(C)CCC(CN2CCN(c3ccc(C(=O)NS(=O)(=O)c4ccc(NCC5CCOCC5)c([N+](=O)[O-])c4)c(Oc4cnc5[nH]ccc5c4)c3)CC2)=C(c2ccc(Cl)cc2)C1 [Venetoclax] + Cn1cnc2c(F)c(Nc3ccc(Br)cc3Cl)c(C(=O)NOCCO)cc21 [Selumetinib] (first compound max 1 µM, 7x7, partner max 3 µM)
0.436

For NCI-H1993 (Lung Adenocarcinoma), give combination Emax of the listed compound: C[C@@H](Oc1cc(-c2cnn(C3CCNCC3)c2)cnc1N)c1c(Cl)ccc(F)c1Cl [Crizotinib] + CC1=C(C(=CC=C1)Cl)NC(=O)C2=CN=C(S2)NC3=CC(=NC(=N3)C)N4CCN(CC4)CCO [Dasatinib] (first compound max 10 µM, 7x7, partner max 2 µM)
0.811

* * *

System: EFO-21 (Ovarian Carcinoma)
Assay Info: combination Emax (second highest fraction inhibited in the dose matrix, 72 h); higher = more inhibition; extreme values may be limits of the assay
For each entry below, report its combination Emax value.
Respond numerically, and do not add a unit to the figure.

Please give the documented combination Emax of NC1(C(=O)N[C@@H](CCO)c2ccc(Cl)cc2)CCN(c2ncnc3[nH]ccc23)CC1 [Capivasertib] + CC(=O)c1c(C)c2cnc(Nc3ccc(N4CCNCC4)cn3)nc2n(C2CCCC2)c1=O [Palbociclib] (first compound max 10 µM, 7x7, partner max 10 µM)
0.101

Please give the documented combination Emax of CN(CCO)CC[C@H](CSc1ccccc1)Nc1ccc(S(=O)(=O)NC(=O)c2ccc(N3CCC([C@@H](O)c4ccccc4-c4ccc(Cl)cc4)CC3)cc2)cc1S(=O)(=O)C(F)(F)F [AZD4320] + Nc1ccn([C@@H]2O[C@H](CO)[C@@H](O)C2(F)F)c(=O)n1 [Gemcitabine] (first compound max 1 µM, 7x7, partner max 0.3 µM)
0.473

Please give the documented combination Emax of Cc1cc2ncnn2cc1Nc1ncc2c(n1)n(C1CCOCC1)c(=O)n2C [AZD7648] + O=C(c1cc(Cc2n[nH]c(=O)c3ccccc23)ccc1F)N1CCN(C(=O)C2CC2)CC1 [Olaparib] (first compound max 10 µM, 7x7, partner max 10 µM)
0.264

Please give the documented combination Emax of COc1nnc2ccc(N3CCC(c4ccc(OCCN5CCN(C)C(=O)[C@H]5C)cc4)CC3)nn12 [AZD5153] + CC1(C)CCC(CN2CCN(c3ccc(C(=O)NS(=O)(=O)c4ccc(NCC5CCOCC5)c([N+](=O)[O-])c4)c(Oc4cnc5[nH]ccc5c4)c3)CC2)=C(c2ccc(Cl)cc2)C1 [Venetoclax] (first compound max 1 µM, 7x7, partner max 1 µM)
0.425

Please give the documented combination Emax of CN(CCO)CC[C@H](CSc1ccccc1)Nc1ccc(S(=O)(=O)NC(=O)c2ccc(N3CCC([C@@H](O)c4ccccc4-c4ccc(Cl)cc4)CC3)cc2)cc1S(=O)(=O)C(F)(F)F [AZD4320] + C1CN(CCC1(C(=O)N[C@@H](CCO)C2=CC=C(C=C2)Cl)N)C3=NC=NC4=C3C=CN4 [Capivasertib] (first compound max 1 µM, 7x7, partner max 3 µM)
0.168

Please give the documented combination Emax of COc1cc2ncnc(Nc3ccc(F)c(Cl)c3)c2cc1OCCCN1CCOCC1 [Gefitinib] + CC(C)n1c(=O)n(C)c2cnc3cc(F)c(-c4ccc(OCCCN5CCCCC5)nc4)cc3c21 [AZD1390] (first compound max 10 µM, 7x7, partner max 0.3 µM)
0.198

Please give the documented combination Emax of CC(=O)c1c(C)c2cnc(Nc3ccc(N4CCNCC4)cn3)nc2n(C2CCCC2)c1=O [Palbociclib] + Cn1cnc2c(F)c(Nc3ccc(Br)cc3Cl)c(C(=O)NOCCO)cc21 [Selumetinib] (first compound max 10 µM, 7x7, partner max 10 µM)
0.245

Please give the documented combination Emax of CN(C)CCCOc1ccc(-c2ccc3ncc4c(c3c2)n(C2CCOCC2)c(=O)n4C)cn1 [AZD0156] + O=C(c1cc(Cc2n[nH]c(=O)c3ccccc23)ccc1F)N1CCN(C(=O)C2CC2)CC1 [Olaparib] (first compound max 3 µM, partner max 3 µM)
0.252

Please give the documented combination Emax of CCN(CCO)CCCOc1ccc2c(Nc3cc(CC(=O)Nc4cccc(F)c4)[nH]n3)ncnc2c1 [AZD2811] + C=CCn1c(=O)c2cnc(Nc3ccc(N4CCN(C)CC4)cc3)nc2n1-c1cccc(C(C)(C)O)n1 [AZD1775] (first compound max 1 µM, partner max 1 µM)
0.472

Please give the documented combination Emax of CC1(C)CCC(CN2CCN(c3ccc(C(=O)NS(=O)(=O)c4ccc(NCC5CCOCC5)c([N+](=O)[O-])c4)c(Oc4cnc5[nH]ccc5c4)c3)CC2)=C(c2ccc(Cl)cc2)C1 [Venetoclax] + CN(C)CCCOc1ccc(-c2ccc3ncc4c(c3c2)n(C2CCOCC2)c(=O)n4C)cn1 [AZD0156] (first compound max 1 µM, 7x7, partner max 1 µM)
0.29

Please give the documented combination Emax of NC1(C(=O)N[C@@H](CCO)c2ccc(Cl)cc2)CCN(c2ncnc3[nH]ccc23)CC1 [Capivasertib] + CCN(CCO)CCCOc1ccc2c(Nc3cc(CC(=O)Nc4cccc(F)c4)[nH]n3)ncnc2c1 [AZD2811] (first compound max 10 µM, 7x7, partner max 1 µM)
0.235

Please give the documented combination Emax of C[C@@H](Nc1cc(F)cc(F)c1)c1cc(C(=O)N(C)C)cc2c(=O)cc(N3CCOCC3)oc12 [AZD8186] + CC(=O)c1c(C)c2cnc(Nc3ccc(N4CCNCC4)cn3)nc2n(C2CCCC2)c1=O [Palbociclib] (first compound max 10 µM, 7x7, partner max 10 µM)
0.325

Please give the documented combination Emax of C[C@@H](c1ccc2nccn2c1)n1nnc2ncc(-c3cnn(C)c3)nc21 [Savolitinib] + CC1(C)CCC(CN2CCN(c3ccc(C(=O)NS(=O)(=O)c4ccc(NCC5CCOCC5)c([N+](=O)[O-])c4)c(Oc4cnc5[nH]ccc5c4)c3)CC2)=C(c2ccc(Cl)cc2)C1 [Venetoclax] (first compound max 1 µM, 7x7, partner max 1 µM)
0.212

Where do the numbers come from? From the supplement of paper PMC11061612.
